Biological target: PD-L1 (Homo sapiens)
Construct: determine if they can specifically dimerize the extracellular domains of PD-L1
Sequence (Q9NZQ7 19-238 limits assumed): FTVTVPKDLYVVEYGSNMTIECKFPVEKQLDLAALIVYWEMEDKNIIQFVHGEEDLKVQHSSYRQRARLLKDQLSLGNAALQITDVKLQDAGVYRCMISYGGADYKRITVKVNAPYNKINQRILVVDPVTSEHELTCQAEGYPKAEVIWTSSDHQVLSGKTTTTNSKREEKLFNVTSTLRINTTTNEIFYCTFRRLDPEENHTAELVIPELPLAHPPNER
Sequence (Q9NZQ7 19-238 limits assumed): as above
Assay: PD-L1/PD-L1 dimerization biochemical protein-protein interaction assay (ALPHA)
Format: binding
Conditions: compound-induced PD-L1 dimerization, head prints '1 nM' (0.5 nM His-tagged PD-L1 and 0.5 nM FLAG-tagged PD-L1), read-out: AC50 PDL1 Dimer Alpha 1 nM
measurement.label: AC50 (nM)

Cc1c(COc2cc(OCc3cncc(C#N)c3)c(CN[C@](C)(CO)C(=O)O)cc2Cl)cccc1-c1cccc(-c2ccc(OC3CN4CCC3CC4)cc2)c1C (some centres unmarked) [Example 302]: 76.2
COc1nc(-c2cccc(-c3cccc4c3CC[C@@H]4Oc3nc(OC)c(CN4CC5(CCC(=O)N5)C4)cc3Cl)c2Cl)ccc1CNC[C@@H]1CCC(=O)N1 [Example 726]: 81.9
Cc1c(COc2cc(OCc3cncc(C#N)c3)c(CNC[C@@H](O)CC(=O)O)cc2Cl)cccc1-c1cccc(-c2ccc(OCCNC[C@@H](O)CC(=O)O)cn2)c1C [Example 112]: 184
COc1cc(-c2cccc(-c3cccc4c3CC[C@@H]4Oc3ccc(CN[C@@](C)(CO)C(=O)O)c(OC)n3)c2Cl)ccc1C1=NCCN1 [Example 777]: 45.8
Cc1c(COc2cc(OCc3cncc(C#N)c3)c(CN[C@@](C)(CO)C(=O)O)cc2Cl)cccc1-c1cccc(-c2ccc(OCCNC[C@@H]3CCC(=O)N3)cc2)c1C [Example 517]: 91.7
COc1nc(-c2cccc(-c3cccc4c3CC[C@@H]4Oc3nc(OCc4cncc(C#N)c4)c(CN[C@@](C)(CO)C(=O)O)cc3Cl)c2Br)ccc1C1=NCCN1 [Example 702]: 332
N#Cc1cncc(COc2nc(O[C@H]3CCc4c(-c5cccc(-c6ccc(OCCNCCO)cc6)c5Cl)cccc43)c(Cl)cc2CNC[C@@H](O)CC(=O)O)c1 [Example 291]: 27.5
COc1nc(-c2cccc(-c3cccc4c3CC[C@@H]4Oc3nc(OC)c(CN4CCC(C)(C(=O)O)C4)cc3Cl)c2Cl)ccc1CNC[C@@H]1CCC(=O)N1 (some centres unmarked) [Example 763]: 11.3
Cc1c(COc2cc(OCc3cncc(C#N)c3)c(CNC[C@@H](O)CC(=O)O)cc2Cl)cccc1-c1cccc(-c2ncc(COCCNC[C@@H](O)CC(=O)O)s2)c1C [Example 350]: 252
COc1nc(O[C@H]2CCc3c(-c4cccc(-c5ccc(CNC[C@@H]6CCC(=O)N6)c(F)c5)c4Cl)cccc32)c(Br)cc1CNC[C@@H]1CCC(=O)N1 [Example 790]: 75.7

I: COc1cc(-c2cccc(-c3cccc4c3CC[C@@H]4Oc3nc(OC)c(CN[C@@](C)(CO)C(=O)O)cc3Br)c2Cl)ccc1C1=NCCN1 [Example 780]
II: N#Cc1cncc(COc2nc(OCc3cccc(-c4cccc(-c5ccc6c(c5)C[C@@H](N)C6)c4Cl)c3Cl)c(Br)cc2CNC[C@@H](O)CC(=O)O)c1 [Example 552]
I would appreciate it if you could say which entry, I or II , has the lower AC50 value. Response format: the label of the selected entry.
I
(I: 14.4 nM, II: 74.7 nM)

----------
Target: PD-1/PD-L1 (Homo sapiens, UniProt Q9NZQ7)
Sequence (Q9NZQ7 19-238 limits assumed): as above
Experiment: PD-1/PD-L1 biochemical protein-protein interaction assay (ALPHA)
Conditions: 0.3 nM His tagged PD-L1, 2.5 nM biotinylated Fc-PD-1, 60 minutes at 25° C., read-out: IC50 PD-L1-PD-1 Alpha IC50-mono PD-L1-fcP-D1
pIC50: −log10 of the molar value.
measurement.label: pIC50

Some entries whose results are on file:
Cc1c(COc2cc(OCc3cncc(C(N)=O)c3)c(CN[C@@](C)(CO)C(=O)O)cc2Cl)cccc1-c1cccc(-c2ccc3c(c2)[C@@H](O)C[C@H]3N)c1C [Example 470]: 10.02
Cc1c(COc2cc(O)c(CNCCCP(=O)(O)O)cc2Cl)cccc1-c1cccc(COc2cc(OCc3cncc(C#N)c3)c(CNCCCP(=O)(O)O)cc2Cl)c1C [Example 294]: 8.03
Cc1c(COc2cc(OCc3cccc(C#N)n3)c(CNC[C@@H](O)CC(=O)O)cc2Cl)cccc1-c1cccc(COc2cc(OCc3cccc(C#N)n3)c(CNC[C@@H](O)CC(=O)O)cc2Cl)c1C [Example 221]: 8.82

P: Cc1c(COc2cc(OCc3cncc(C#N)c3)c(CN[C@@](C)(CO)C(=O)O)cc2Cl)cccc1-c1cccc(-c2nnc(CCN3CC[C@@H](O)C3)o2)c1C [Example 453]
Q: Cc1c(COc2cc(OCc3cncc(C#N)c3)c(CN[C@@](C)(CO)C(=O)O)cc2Cl)cccc1-c1cccc(-c2ccc(CN(C)C)cc2)c1Br [Example 483]
R: COc1cc(-c2cccc(-c3cccc4c3CC[C@@H]4Oc3nc(OC)c(CNC[C@@H]4CCC(=O)N4)cc3Br)c2Cl)ccc1CNC[C@@H]1CCC(=O)N1 [Example 792]
Could you please sort these 3 entries by pIC50 from high to low? Present the labels in the sequence the task asks for.
Q, P, R
